- System: ATP;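 also: ATP exposure 15 min at 22 °C before imaging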
- RUN_DESCRIPTION: switch fluorescence ratio, 500 uM ATP over buffer (Cy3 cluster intensity, sum of 5 cycles each) (fold (ratio)); higher = stronger signal-on switching upon ATP binding; sequences stand for … in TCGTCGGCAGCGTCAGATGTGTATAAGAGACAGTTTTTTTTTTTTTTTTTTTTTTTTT…TC
- TEST_SETTINGS: aptamer strand: ATP DNA aptamer (quencher-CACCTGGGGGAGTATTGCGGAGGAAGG + anchor), 100 nM annealed; ATP concentration: 500 uM
PROPERTY_MEASURED: switch fluorescence ratio
The response must contain the number and no unit.

// below: answered sequences
CGTGTTTTTG ... 0.986
AGGGGGAAAT ... 0.987
GTGGGAATTT ... 0.982

*Q* // lookup switch fluorescence ratio | system=ATP | key= CTCGTTGAAG;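 also: ATP exposure 15 min at 22 °C before imaging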
*A* 0.979

*Q* // lookup switch fluorescence ratio | system=ATP | key= GGAGTAGGGA;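 also: ATP exposure 15 min at 22 °C before imaging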
*A* 1.02

*Q* // lookup switch fluorescence ratio | system=ATP | key= AGTTATATTG;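 also: ATP exposure 15 min at 22 °C before imaging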
*A* 0.997

*Q* // lookup switch fluorescence ratio | system=ATP | key= AAAGGGAGGG;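 also: ATP exposure 15 min at 22 °C before imaging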
*A* 1

###

- System: ATP;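 also: ATP exposure 15 min at 22 °C before imaging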
- RUN_DESCRIPTION: switch fluorescence ratio, 500 uM ATP over buffer (Cy3 cluster intensity, sum of 5 cycles each) (fold (ratio)); higher = stronger signal-on switching upon ATP binding; sequences stand for … in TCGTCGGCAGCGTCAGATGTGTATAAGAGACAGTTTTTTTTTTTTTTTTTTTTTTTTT…TC
- TEST_SETTINGS: aptamer strand: ATP DNA aptamer (quencher-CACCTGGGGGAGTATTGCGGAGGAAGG + anchor), 100 nM annealed; ATP concentration: 500 uM
Each entry below lists one item and its recorded switch fluorescence ratio value.
The response must contain the number and no unit.

*Q* GET /values?readout=switch fluorescence ratio&item= GCTGAGGTGA
*A* 1.02

*Q* GET /values?readout=switch fluorescence ratio&item= ATCTAAAGGG
*A* 0.999

*Q* GET /values?readout=switch fluorescence ratio&item= CATTTGGGCC
*A* 0.999

*Q* GET /values?readout=switch fluorescence ratio&item= TTTCCTTGAA
*A* 0.974

*Q* GET /values?readout=switch fluorescence ratio&item= AAGTTGTGTA
*A* 0.993

*Q* GET /values?readout=switch fluorescence ratio&item= TCGTTGGATG
*A* 0.983

*Q* GET /values?readout=switch fluorescence ratio&item= TTTTTAATGC
*A* 0.979

###

Each entry below lists one item and its recorded switch fluorescence ratio value.
- Test system: ATP;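 also: ATP exposure 15 min at 22 °C before imaging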
- RUN_DESCRIPTION: switch fluorescence ratio, 500 uM ATP over buffer (Cy3 cluster intensity, sum of 5 cycles each) (fold (ratio)); higher = stronger signal-on switching upon ATP binding; sequences stand for … in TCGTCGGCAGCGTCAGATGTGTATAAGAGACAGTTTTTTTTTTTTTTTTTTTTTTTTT…TC
- TEST_SETTINGS: aptamer strand: ATP DNA aptamer (quencher-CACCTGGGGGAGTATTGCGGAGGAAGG + anchor), 100 nM annealed; ATP concentration: 500 uM
The response must contain the number and no unit.

// below: answered sequences
TGTGTGAGGG ... 1.04
CGGGTAAATA ... 1.01
GCCAGAGAGT ... 1.01
GTTATAAGTC ... 1.01
GGGTACGTCA ... 1.03
GACCCTGGGT ... 1.06
GCACGGGGCA ... 1.01

Shift focus to the following entry.
*Q* GET /values?readout=switch fluorescence ratio&item= CTCGGGATGG
*A* 1.74

###

- Test system: ATP;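 also: ATP exposure 15 min at 22 °C before imaging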
- RUN_DESCRIPTION: switch fluorescence ratio, 500 uM ATP over buffer (Cy3 cluster intensity, sum of 5 cycles each) (fold (ratio)); higher = stronger signal-on switching upon ATP binding; sequences stand for … in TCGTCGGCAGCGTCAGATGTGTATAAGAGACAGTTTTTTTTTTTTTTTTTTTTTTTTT…TC
- TEST_SETTINGS: aptamer strand: ATP DNA aptamer (quencher-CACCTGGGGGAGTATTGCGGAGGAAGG + anchor), 100 nM annealed; ATP concentration: 500 uM
PROPERTY_MEASURED: switch fluorescence ratio
The response must contain the number and no unit.

// below: answered sequences
ATGTAACTAT ... 1.03
CGCTTAAGTT ... 1
TATTTACGGG ... 0.993
AAGTGGGCCT ... 0.981

*Q* GET /values?readout=switch fluorescence ratio&item= TTACGAAAAG
*A* 1.08

*Q* GET /values?readout=switch fluorescence ratio&item= CTGAAAGGGT
*A* 1.01

*Q* GET /values?readout=switch fluorescence ratio&item= TAGGATTCTC
*A* 0.979

*Q* GET /values?readout=switch fluorescence ratio&item= GCATTATTGG
*A* 0.998

###

- Tested on: ATP;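 also: ATP exposure 15 min at 22 °C before imaging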
- RUN_DESCRIPTION: switch fluorescence ratio, 500 uM ATP over buffer (Cy3 cluster intensity, sum of 5 cycles each) (fold (ratio)); higher = stronger signal-on switching upon ATP binding; sequences stand for … in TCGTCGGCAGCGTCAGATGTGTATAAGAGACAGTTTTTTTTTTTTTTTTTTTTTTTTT…TC
- TEST_SETTINGS: aptamer strand: ATP DNA aptamer (quencher-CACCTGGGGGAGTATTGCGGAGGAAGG + anchor), 100 nM annealed; ATP concentration: 500 uM
Each entry below lists one item and its recorded switch fluorescence ratio value.

// below: answered sequences
AAGGGCTAGG ... 0.999
ATTAGGGTCT ... 0.986
GCGTCCGGGA ... 1.21

Shift focus to the following entry.
*Q* GET /values?readout=switch fluorescence ratio&item= AAGGGGAAGG
*A* 0.996

###

- System: ATP;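 also: ATP exposure 15 min at 22 °C before imaging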
- RUN_DESCRIPTION: switch fluorescence ratio, 500 uM ATP over buffer (Cy3 cluster intensity, sum of 5 cycles each) (fold (ratio)); higher = stronger signal-on switching upon ATP binding; sequences stand for … in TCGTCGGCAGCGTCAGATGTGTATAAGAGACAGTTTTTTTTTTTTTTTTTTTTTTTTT…TC
- TEST_SETTINGS: aptamer strand: ATP DNA aptamer (quencher-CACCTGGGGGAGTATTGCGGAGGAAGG + anchor), 100 nM annealed; ATP concentration: 500 uM
Each entry below lists one item and its recorded switch fluorescence ratio value.
The response must contain the number and no unit.

// below: answered sequences
TGTTTAAGAG ... 1
CGAATAAGCG ... 0.995
GATCGACTGG ... 1.03
CAATTTTTTT ... 1.08
GGGTTGGTTT ... 1.02

*Q* GET /values?readout=switch fluorescence ratio&item= GAGCGAATAG
*A* 1.46

*Q* GET /values?readout=switch fluorescence ratio&item= ATTGGCTGGT
*A* 1

*Q* GET /values?readout=switch fluorescence ratio&item= AAAAACACTT
*A* 1.04

###

Each entry below lists one item and its recorded switch fluorescence ratio value.
- Tested on: ATP;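 also: ATP exposure 15 min at 22 °C before imaging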
- RUN_DESCRIPTION: switch fluorescence ratio, 500 uM ATP over buffer (Cy3 cluster intensity, sum of 5 cycles each) (fold (ratio)); higher = stronger signal-on switching upon ATP binding; sequences stand for … in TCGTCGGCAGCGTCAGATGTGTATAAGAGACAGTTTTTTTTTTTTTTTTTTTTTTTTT…TC
- TEST_SETTINGS: aptamer strand: ATP DNA aptamer (quencher-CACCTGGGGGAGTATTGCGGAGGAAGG + anchor), 100 nM annealed; ATP concentration: 500 uM
The response must contain the number and no unit.

// below: answered sequences
CGGGACGGGG ... 0.967
TGCGGGGTAC ... 1.25
TGTTACGGCA ... 1.08

*Q* GET /values?readout=switch fluorescence ratio&item= TACTTAGGGA
*A* 1.03

*Q* GET /values?readout=switch fluorescence ratio&item= GCTGTATGAG
*A* 0.985

*Q* GET /values?readout=switch fluorescence ratio&item= ATTTGATTGT
*A* 0.98

*Q* GET /values?readout=switch fluorescence ratio&item= TAAACACAGG
*A* 1.16

*Q* GET /values?readout=switch fluorescence ratio&item= TGGGCACGGT
*A* 0.969

###

Each entry below lists one item and its recorded switch fluorescence ratio value.
- Tested on: ATP;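 also: ATP exposure 15 min at 22 °C before imaging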
- RUN_DESCRIPTION: switch fluorescence ratio, 500 uM ATP over buffer (Cy3 cluster intensity, sum of 5 cycles each) (fold (ratio)); higher = stronger signal-on switching upon ATP binding; sequences stand for … in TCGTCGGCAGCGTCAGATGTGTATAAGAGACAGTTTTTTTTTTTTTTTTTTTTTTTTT…TC
- TEST_SETTINGS: aptamer strand: ATP DNA aptamer (quencher-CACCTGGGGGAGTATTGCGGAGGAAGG + anchor), 100 nM annealed; ATP concentration: 500 uM
The response must contain the number and no unit.

// below: answered sequences
TCGTATGATA ... 0.968
GGTCAGAAGG ... 0.996
CGGAATGCAG ... 1.08

*Q* GET /values?readout=switch fluorescence ratio&item= GCGATAGACG
*A* 0.99

*Q* GET /values?readout=switch fluorescence ratio&item= TTGGTAGCAA
*A* 1.81

*Q* GET /values?readout=switch fluorescence ratio&item= CGAAGGGAAT
*A* 1.03

*Q* GET /values?readout=switch fluorescence ratio&item= AGTTTCTACG
*A* 0.994

*Q* GET /values?readout=switch fluorescence ratio&item= GGTGATTTTA
*A* 1

*Q* GET /values?readout=switch fluorescence ratio&item= GTGTATTGGT
*A* 0.983

# credit: the supplement of paper PMC10126150
